Values compiled from ChEMBL document CHEMBL1140224.

measurement-description: Cytotoxicity against human KHYG-1 cells assessed as cell viability upto 20 uM after 24 hrs by trypan blue exclusion assay
Format: cell-based
reported-conditions: read-out: Activity
This section presents compounds with their documented viability at 24 h values.
value-kind: viability at 24 h (%)

>>> print(df.to_string())
                      smiles_representation  numeric_result
0  Cc1cc2c(c(=S)[nH]1)C(=O)O/C2=C\c1ccc(C)o1              72
1  Cc1cc2c(c(=S)[nH]1)C(=O)O/C2=C\c1ccc(-c2ccccc2)s1               0
2  Cc1cc2c(c(=S)[nH]1)C(=O)O/C2=C\c1cc2ccccc2[nH]1               0
3  COc1ccc2oc(/C=C3\OC(=O)c4c3cc(C)[nH]c4=S)cc2c1               0
4  Cc1cc2c(c(=O)[nH]1)C(=O)O/C2=C\c1cc2ccccc2s1             100
5  Cc1cc2c(c(=S)[nH]1)C(=O)O/C2=C\c1csc2ccccc12              88
